What EC50 was measured for each of the following?
Tested on: SUDHL10
Test: Induction of caspase-3/7 activity, SUDHL10 (Assay 4)
Type: cell-based
Conditions: SUDHL10 cells, 3 h, Caspase-Glo 3/7; median
Give bare numbers, in µM.

Worked cases, answers included:
INSERT INTO assay_data (molecule, observation_type, value_measured) VALUES
  ('Cc1c2c(nn1C)COCCCCn1c(C(=O)O)c(CCCOc3ccc(F)c4ccccc34)c3ccc(F)c-2c31 (single isomer, unassigned; enantiomer 1) [Example 16]', 'EC50', 4.1),
  ('CCc1c2c(nn1C)COCCCCn1c(C(=O)O)c(CCCOc3cccc4cc(F)ccc34)c3ccc(F)c-2c31 (single isomer, unassigned; enantiomer 1) [Example 24]', 'EC50', 0.54),
  ('Cc1c2c(nn1C)COCCCCn1c(C(=O)O)c(CCCOc3cccc4cc(F)ccc34)c3ccc(F)c-2c31 (single isomer, unassigned; enantiomer 2) [Example 14]', 'EC50', 14);

Return reported EC50 values for all items listed beneath this line.
1. CCc1nn(C)c2c1-c1c(F)ccc3c(CCCOc4cccc5cc(F)ccc45)c(C(=O)O)n(c13)CCCCOC2 (single isomer, unassigned; enantiomer 1) [Example 39]
2. CCc1c2c(nn1C)COCCCCn1c(C(=O)O)c(CCCOc3ccc(F)c4ccccc34)c3ccc(F)c-2c31 (single isomer, unassigned; enantiomer 1) [Example 27]

Output:
[0.94, 1.6]

Return reported EC50 values for all items listed beneath this line.
1. CCc1nn(C)c2c1-c1c(F)ccc3c(CCCOc4ccc(F)c5ccccc45)c(C(=O)O)n(c13)CCCCOC2 (single isomer, unassigned; enantiomer 1) [Example 42]
2. CCc1c2c(nn1C)COCCCCn1c(C(=O)O)c(CCCOc3cccc4cc(F)ccc34)c3ccc(F)c-2c31 (single isomer, unassigned; enantiomer 1) [Example 22]

Output:
6.3
0.38
